B1: library; a variant is named by its letters at N, in order (parent)
chain: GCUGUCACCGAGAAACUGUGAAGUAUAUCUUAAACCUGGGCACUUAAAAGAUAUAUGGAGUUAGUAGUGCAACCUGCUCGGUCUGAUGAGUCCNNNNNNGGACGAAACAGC

# Variants of: B1
# Experiment summary: normalized RNA/DNA level without ligand (relative to sTRSVctl = 100) (log10 (% of sTRSVctl)); HEK293T; ligand: cyclic di-GMP (c-di-GMP-II aptamer); higher = less ribozyme self-cleavage, higher mRNA level
# Condition info: reporter: mCherry (pCS4076), ligand present: no
We begin with a simple list: items and their reported normalized RNA/DNA level without ligand (log10).
I only need the number, thanks.

>>> df
   residue_change  numeric_result
0          UCUUAA            1.64
1          GACCUC            1.72
2          GGCUCU            1.78
3          CGCAGG            1.61
4          UGCGAA            1.69
5          GGUCUA            1.52
6          UUAACA             1.7
7          GAAUGG            1.62

Dear colleague, I am looking for the recorded normalized RNA/DNA level without ligand (log10) of the following variant: AGCCGC
1.75

Dear colleague, I am looking for the recorded normalized RNA/DNA level without ligand (log10) of the following variant: UACAUA
1.71

Dear colleague, I am looking for the recorded normalized RNA/DNA level without ligand (log10) of the following variant: UCAACU
1.71

Dear colleague, I am looking for the recorded normalized RNA/DNA level without ligand (log10) of the following variant: CCGCCA
1.64

Dear colleague, I am looking for the recorded normalized RNA/DNA level without ligand (log10) of the following variant: GAGCUA
1.79

Dear colleague, I am looking for the recorded normalized RNA/DNA level without ligand (log10) of the following variant: AACCAU
1.6

Dear colleague, I am looking for the recorded normalized RNA/DNA level without ligand (log10) of the following variant: GCCGAA
1.45

Dear colleague, I am looking for the recorded normalized RNA/DNA level without ligand (log10) of the following variant: UCCGCA
1.72

Dear colleague, I am looking for the recorded normalized RNA/DNA level without ligand (log10) of the following variant: UUAGCG
1.79

Dear colleague, I am looking for the recorded normalized RNA/DNA level without ligand (log10) of the following variant: AGUGGC
1.6

Dear colleague, I am looking for the recorded normalized RNA/DNA level without ligand (log10) of the following variant: GUAAUG
1.63

Dear colleague, I am looking for the recorded normalized RNA/DNA level without ligand (log10) of the following variant: GCAUGA
1.38

Dear colleague, I am looking for the recorded normalized RNA/DNA level without ligand (log10) of the following variant: GUGUUA
1.58

Dear colleague, I am looking for the recorded normalized RNA/DNA level without ligand (log10) of the following variant: AUCAAA
1.57

Dear colleague, I am looking for the recorded normalized RNA/DNA level without ligand (log10) of the following variant: AGGGAG
1.6

Dear colleague, I am looking for the recorded normalized RNA/DNA level without ligand (log10) of the following variant: CCCCAG
1.68

Dear colleague, I am looking for the recorded normalized RNA/DNA level without ligand (log10) of the following variant: UAUGGG
1.57

Dear colleague, I am looking for the recorded normalized RNA/DNA level without ligand (log10) of the following variant: CGCAGA
1.45

Dear colleague, I am looking for the recorded normalized RNA/DNA level without ligand (log10) of the following variant: AAAAAC
1.61

Dear colleague, I am looking for the recorded normalized RNA/DNA level without ligand (log10) of the following variant: UUGACA
1.7

Dear colleague, I am looking for the recorded normalized RNA/DNA level without ligand (log10) of the following variant: CCCGAA
1.39

Value source: the supplement of paper PMC6757056
